Experiment: AUClast in fasted healthy human at 30 mg/kg, po
Assay type: ADME, organism-based
Set-up: time 0 - last, dose 30 mg/kg, route oral
Details: plasma
observable: AUC(0-t) (µM·h)
Give the number; µM·h is assumed, so skip it.

Query: Determine from records and report AUC(0-t) for "COC(=O)N[C@H](C(=O)N1CC2(CC2)C[C@H]1c1nc(-c2ccc3c(c2)C(F)(F)c2cc(-c4ccc5[nH]c([C@@H]6[C@H]7CC[C@H](C7)N6C(=O)[C@@H](NC(=O)OC)C(C)C)nc5c4)ccc2-3)c[nH]1)C(C)C"
Reply: 2.24

* * *

Recorded half-life, one value per entry.
Assay: Half life in beagle dog at 0.2 mg/kg, iv
Format: ADME, organism-based, Canis lupus familiaris
Design: dose 0.2 mg/kg, route intravenous
Details: in vivo
The answer is to be given in h; state only the numeric part.

COC(=O)N[C@H](C(=O)N1CCC[C@H]1c1ncc(-c2ccc(-c3ccc(-c4ccc5nc([C@@H]6[C@H]7CC[C@H](C7)N6C(=O)[C@@H](NC(=O)OC)C(C)C)[nH]c5c4)cc3)cc2)[nH]1)C(C)C    4.01
COC(=O)N[C@H](C(=O)N1CCC[C@H]1c1ncc(-c2ccc3c(c2)C(F)(F)c2cc(-c4ccc5nc([C@@H]6CCCN6C(=O)[C@@H](NC(=O)OC)C(C)C)[nH]c5c4)ccc2-3)[nH]1)C(C)C    2.63
COC(=O)N[C@H](C(=O)N1CC2(CC2)C[C@H]1c1nc(-c2ccc3c(c2)C(F)(F)c2cc(-c4ccc5[nH]c([C@@H]6[C@H]7CC[C@H](C7)N6C(=O)[C@@H](NC(=O)OC)C(C)C)nc5c4)ccc2-3)c[nH]1)C(C)C    7.41
COC(=O)N[C@H](C(=O)N1CCC[C@H]1c1ncc(-c2ccc(-c3ccc(-c4cnc([C@@H]5[C@H]6CC[C@H](C6)N5C(=O)[C@@H](NC(=O)OC)C(C)C)[nH]4)cc3)cc2)[nH]1)C(C)C    5.29

Next item in the queue.
Query: State its half-life: "COC(=O)N[C@H](C(=O)N1CCC[C@H]1c1ncc(-c2ccc(-c3ccc(-c4ccc5nc([C@@H]6CCCN6C(=O)[C@@H](NC(=O)OC)C(C)C)[nH]c5c4)cc3)cc2)[nH]1)C(C)C"
Reply: 2.3

* * *

Assay: Clearance in beagle dog at 0.2 mg/kg, iv
Format: ADME, organism-based, Canis lupus familiaris
Design: dose 0.2 mg/kg, route intravenous
Conditions: in vivo
observable: clearance (mL/min/kg)
Write the answer as a number in mL/min/kg, unit excluded.

Previously resolved entries follow.
COC(=O)N[C@H](C(=O)N1CCC[C@H]1c1ncc(-c2ccc(-c3ccc(-c4ccc5nc([C@@H]6[C@H]7CC[C@H](C7)N6C(=O)[C@@H](NC(=O)OC)C(C)C)[nH]c5c4)cc3)cc2)[nH]1)C(C)C    6.67
COC(=O)N[C@H](C(=O)N1CCC[C@H]1c1ncc(-c2ccc(-c3ccc(-c4ccc5nc([C@@H]6CCCN6C(=O)[C@@H](NC(=O)OC)C(C)C)[nH]c5c4)cc3)cc2)[nH]1)C(C)C    13
COC(=O)N[C@H](C(=O)N1CCC[C@H]1c1ncc(-c2ccc3c(c2)C(F)(F)c2cc(-c4ccc5nc([C@@H]6CCCN6C(=O)[C@@H](NC(=O)OC)C(C)C)[nH]c5c4)ccc2-3)[nH]1)C(C)C    8.83
COC(=O)N[C@H](C(=O)N1CCC[C@H]1c1ncc(-c2ccc(-c3ccc(-c4cnc([C@@H]5[C@H]6CC[C@H](C6)N5C(=O)[C@@H](NC(=O)OC)C(C)C)[nH]4)cc3)cc2)[nH]1)C(C)C    0.833

Query: Supply measured clearance of "COC(=O)N[C@H](C(=O)N1CC2(CC2)C[C@H]1c1nc(-c2ccc3c(c2)C(F)(F)c2cc(-c4ccc5[nH]c([C@@H]6[C@H]7CC[C@H](C7)N6C(=O)[C@@H](NC(=O)OC)C(C)C)nc5c4)ccc2-3)c[nH]1)C(C)C" in your reply.
Reply: 2.17
